Entry source: the EternaBench riboswitch data

Tested on: MS2 coat protein
EXPERIMENT_NOTES: apparent Kd, MS2 coat protein; higher = weaker binding; RNA-MaP array; theophylline 2 mM where present
MEASUREMENT_CONDITIONS: ligand present: theophylline; designed as: OFF switch for theophylline
Collected apparent Kd values appear next to each entry.
Field: numeric (nM). Do not append units.

Answered cases to consult:
{"POLYMER_SEQUENCE": "ACAUGAGGAUCACCCAUGUGGCGUCUUGAUACCAGACGAGAAGUAGUCCCUUGGCAGCAAAUACGUGAGGAUCACACAUGUGCGA", "MEASUREMENT_TARGET": "MS2 coat protein", "DISPLAY_UNIT": "nM", "READING": 37.3}
{"POLYMER_SEQUENCE": "ACAUGAGGAUCACCCAUGUGGCGACUUGAUACCAGACCCGCACUAGUCCCUUGGCAGCAACUACGUGUGGGACACCCAUGUGAAG", "MEASUREMENT_TARGET": "MS2 coat protein", "DISPLAY_UNIT": "nM", "READING": 33.7}
{"POLYMER_SEQUENCE": "ACGUCUCGAAAACUCGUAGUAACUAUAGAUACCAGUAGCGAGAGUUACCCUUGGCAGCUACAUGAGGAUCACCCAUGUACGAGGA", "MEASUREMENT_TARGET": "MS2 coat protein", "DISPLAY_UNIT": "nM", "READING": 15}
{"POLYMER_SEQUENCE": "AGCGCUAUGCAUGAUACCAGCUACAUGAGGAUCACCCAUGUGCGUCAGAAAUGACUGUGUAGCCCUUGGCAGCAUAAAGCAUGUA", "MEASUREMENT_TARGET": "MS2 coat protein", "DISPLAY_UNIT": "nM", "READING": 46.3}

Shift focus to the following entry.
Give apparent Kd for the following sequence: `UGACAUUGCUGCGAUACCAGACAUGAGGAUCACCCAUGUACCAAGGUAAGAAAAUAACAUGUCCCUUGGCAGCGCAGCAAUGUCU`
284

* * *

System: MS2 coat protein
EXPERIMENT_NOTES: apparent Kd, MS2 coat protein; higher = weaker binding; RNA-MaP array; FMN 200 µM where present
MEASUREMENT_CONDITIONS: designed as: ON switch for flavin mononucleotide; no ligand
EXPERIMENTAL_ENDPOINT: apparent Kd (nM)
Output spec: scalar in nM, unitless text.

Solved entries:
{"POLYMER_SEQUENCE": "CGGGCCGUCUACAUGAGGAUCACCCAUGUGACGGAAGUAACACAGGAUAUCCUCUAAUUGUAGACGGAGAAGGGUGGCCCGAAU", "apparent Kd, nM": 28.9}
{"POLYMER_SEQUENCE": "GUUUCUAUAUGUUAUAUUUAACAGUCAGAAGGUGAUACUACGACAUGAGGAUCACCCAUGUAAUUCAAGGAUAUGAACUUAAUC", "apparent Kd, nM": 1110}
{"POLYMER_SEQUENCE": "GUGGUCAGACAUGAGGAUCACCCAUGUGGAAUAAAUAAGGAGAAGGAUAUUGAAUAUAGGAUAUACAAGAAGGUCUGGUUGGUG", "apparent Kd, nM": 84.9}
{"POLYMER_SEQUENCE": "CGCUAGGAUGGGUCUAAUGGACCACAGGAUAUGCUUGUACAUGAGGAUCACCCAUGUAAUAUUGUGCAGAAGGGUGGAUUCGCG", "apparent Kd, nM": 76}

Please examine the following record next.
Report measured apparent Kd; entry is `GCUGUGGCAUGAGGAUAUGGUCAGCUUUGCUGACCAGAAGGCAUGUCAAUAGACAUGAGGAUCACCCAUGUAGUUAACACAGCA`
572
